Biological target: ERα (Homo sapiens, UniProt P03372)
Sequence (P03372 1-595): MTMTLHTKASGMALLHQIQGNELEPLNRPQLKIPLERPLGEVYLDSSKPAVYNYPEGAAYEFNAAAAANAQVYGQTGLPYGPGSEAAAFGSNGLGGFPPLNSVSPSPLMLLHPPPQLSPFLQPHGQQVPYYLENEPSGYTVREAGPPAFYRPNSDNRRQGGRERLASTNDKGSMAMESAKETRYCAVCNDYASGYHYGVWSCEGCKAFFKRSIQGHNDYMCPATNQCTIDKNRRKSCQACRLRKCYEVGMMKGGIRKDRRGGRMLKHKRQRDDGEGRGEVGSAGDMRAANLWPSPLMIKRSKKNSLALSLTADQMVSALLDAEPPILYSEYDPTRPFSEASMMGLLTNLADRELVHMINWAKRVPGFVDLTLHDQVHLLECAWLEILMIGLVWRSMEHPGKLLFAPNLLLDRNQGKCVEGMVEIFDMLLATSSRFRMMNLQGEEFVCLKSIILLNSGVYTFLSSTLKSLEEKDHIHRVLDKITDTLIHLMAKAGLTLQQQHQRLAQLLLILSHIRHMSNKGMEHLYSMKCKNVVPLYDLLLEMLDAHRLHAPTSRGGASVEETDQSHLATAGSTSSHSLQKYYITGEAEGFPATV
Experiment: Degradation of ERα in MCF-7 cells (immunoblotting, 4 h)
Assay type: cell-based
Conditions: 10nM compound
Property: Degradation rate (%) of ERα in MCF-7 cells; scope: individual compounds
VALUE_TYPE: Degradation rate (%) of ERα in MCF-7 cells

COMPOUND	SUBJECT_OF_TEST	OBSERVED_VALUE
O=C1CCC(N2C(=O)c3cc4c(cc3C2=O)C2(CCN(C3CC5(CCN(c6ccc([C@@H]7c8ccc(O)cc8CC[C@@H]7c7ccccc7)cc6)CC5)C3)CC2)CO4)C(=O)N1 (stereo partly drawn) [A34]	ERα (Homo sapiens, UniProt P03372)	13%
CN(C(=O)CN1CCC2(CC1)COc1c2ccc2c1C(=O)N(C1CCC(=O)NC1=O)C2=O)C1CCC2(CC1)CN(c1ccc([C@@H]3c4ccc(O)cc4CC[C@@H]3c3ccccc3)cc1)C2 (stereo partly drawn) [K44]	ERα (Homo sapiens, UniProt P03372)	56%
C[C@@H]1Cc2c(ccc3[nH]ncc23)[C@@H](c2ccc(N3CCN(C[C@H]4CC[C@H](C(=O)N5CCC6(CC5)COc5c6ccc6c5CN(C5CCC(=O)NC5=O)C6=O)CC4)CC3)cn2)N1CC(F)(F)F (stereo partly drawn) [A117]	ERα (Homo sapiens, UniProt P03372)	47%

* * *

target: ERα (Homo sapiens, UniProt P03372); assay: Degradation of ERα in T-47D cells (immunoblotting, 4 h); type: cell-based; set-up: host or cells: T-47D; details: 1nM compound
VALUE_TYPE: Degradation rate (%) of ERα in T-47D cells

COMPOUND	SUBJECT_OF_TEST	OBSERVED_VALUE
O=C1CCC(N2Cc3cc4c(cc3C2=O)OC2(CC4)CCN(C3CC4(CCN(c5ccc([C@@H]6c7ccc(O)cc7CC[C@@H]6c6ccccc6)cc5)CC4)C3)CC2)C(=O)N1 (some centres unmarked)	ERα (Homo sapiens, UniProt P03372)	10
O=C1CCC(N2C(=O)c3cc4c(cc3C2=O)OC2(CC4)CN(CC3CCN(c4ccc([C@@H]5c6ccc(O)cc6CC[C@@H]5c5ccccc5)cc4)CC3)C2)C(=O)N1 (some centres unmarked)	ERα (Homo sapiens, UniProt P03372)	-6
O=C1CCC(N2Cc3c(ccc4c3OCC43CCN(C(=O)CN(CC4CC4)CC4CCN(c5ccc([C@@H]6c7ccc(O)cc7CC[C@@H]6c6ccccc6)cc5)CC4)CC3)C2=O)C(=O)N1 (some centres unmarked)	ERα (Homo sapiens, UniProt P03372)	35
O=C1CCC(N2Cc3cc4c(cc3C2=O)CCC2(CN(C(=O)C3CCN(c5ccc([C@@H]6c7ccc(O)cc7CC[C@@H]6c6ccccc6)cc5)CC3)C2)O4)C(=O)N1 (some centres unmarked)	ERα (Homo sapiens, UniProt P03372)	24
CC1CN(C2CC3(CCN(c4ccc([C@@H]5c6ccc(O)cc6CC[C@@H]5c5ccccc5)cc4)CC3)C2)CCC1N1CCC2(CC1)COc1c2ccc2c1CN(C1CCC(=O)NC1=O)C2=O (some centres unmarked)	ERα (Homo sapiens, UniProt P03372)	4
